As shown below, each of these compounds has a reported CLint scaled at 1 μM value.
# Procedure Details: Human hepatocyte intrinsic clearance
# Format: in vitro ADME
# Protocol Conditions: human, hepatocytes
I only need the number, in mL/min/kg, no unit after it.

Answered cases to consult:
[2H]c1nc2cccnc2n1C([2H])([2H])c1cc(OC)c2c(c1)O[C@@H](C)[C@H](c1ccc(OC)nc1)O2 (racemic)
19
[2H]c1nc2cccnc2n1Cc1cc(OC)c2c(c1)O[C@@H](C)[C@H](c1ccc(OC)nc1)O2
20
COc1ccc(C2Oc3c(OC)cc(Cn4cnc5cccnc54)cc3O[C@H]2C)cn1 (stereo partly shown)
32.3
[2H]c1ccc2ncn(Cc3cc(OC)c4c(c3)O[C@@H](C)[C@H](c3ccc(OC)nc3)O4)c2n1 (racemic)
26.2
[2H]c1nc2cccnc2n1Cc1cc(OC)c2c(c1)O[C@H](C)[C@@H](c1ccc(OC)nc1)O2
19.7
N=C(N)NC(=O)c1cnn(-c2cccc3ncccc23)c1C1CC1 [zoniporide]
33.8

Consider now this further compound.
Request: Provide one value: measured CLint scaled at 1 μM of [2H]c1ccc2nc([2H])n(Cc3cc(OC)c4c(c3)O[C@@H](C)[C@H](c3ccc(OC)nc3)O4)c2n1 (racemic)
Result: 16.2

* * *

As shown below, each of these compounds has a reported Human Hepatocytes Intrinsic Clearance value.
# Procedure Details: Human hepatocyte intrinsic clearance
# Format: in vitro ADME
# Protocol Conditions: raw data, AO calibration set

Nc1nc(OCc2ccccc2)c2nc[nH]c2n1
13.6 μL/min/10^6 cells
CN(Cc1cnc2nc(N)nc(N)c2n1)c1ccc(C(=O)N[C@@H](CCC(=O)O)C(=O)O)cc1 [methotrexate]
<2.7 μL/min/10^6 cells
CN(C)CCNC(=O)c1cccc2cc3ccccc3nc12
49.1 μL/min/10^6 cells

Consider now this further compound.
Request: Provide one value: measured Human Hepatocytes Intrinsic Clearance of CC[C@H]1OC(=O)[C@H](C)C(=O)[C@H](C)[C@@H](O[C@@H]2O[C@H](C)C[C@H](N(C)C)[C@H]2O)[C@](C)(OC)C[C@@H](C)C(=O)[C@H](C)[C@H]2N(C3CN([C@H](C)c4ccnc5ncccc45)C3)C(=O)O[C@]12C
Result: 10.7 μL/min/10^6 cells

* * *

# Procedure Details: Human liver cytosol intrinsic clearance
# Format: in vitro ADME
# Protocol Conditions: human, cytosol
As shown below, each of these compounds has a reported CLint scaled at 1 μM value.

Answered cases to consult:
[2H]c1ccc2ncn(Cc3cc(OC)c4c(c3)O[C@@H](C)[C@H](c3ccc(OC)nc3)O4)c2n1 (racemic) [Compound 1]
6.9 mL/min/kg
COc1ccc(C2Oc3c(OC)cc(Cn4cnc5cccnc54)cc3O[C@H]2C)cn1 (stereo partly shown) [Compound 24]
10.5 mL/min/kg
N=C(N)NC(=O)c1cnn(-c2cccc3ncccc23)c1C1CC1 [zoniporide]
12.4 mL/min/kg
[2H]c1nc2cccnc2n1Cc1cc(OC)c2c(c1)O[C@H](C)[C@@H](c1ccc(OC)nc1)O2 [Compound 5]
2.2 mL/min/kg
[2H]c1nc2cccnc2n1Cc1cc(OC)c2c(c1)O[C@@H](C)[C@H](c1ccc(OC)nc1)O2 [Compound 6]
3.9 mL/min/kg
[2H]c1nc2cccnc2n1C([2H])([2H])c1cc(OC)c2c(c1)O[C@@H](C)[C@H](c1ccc(OC)nc1)O2 (racemic) [Compound 4]
3.4 mL/min/kg

Consider now this further compound.
Request: Provide one value: measured CLint scaled at 1 μM of [2H]c1ccc2nc([2H])n(Cc3cc(OC)c4c(c3)O[C@@H](C)[C@H](c3ccc(OC)nc3)O4)c2n1 (racemic) [Compound 2]
Result: 4.3 mL/min/kg

* * *

# Procedure Details: Human hepatocyte intrinsic clearance
# Format: in vitro ADME
# Protocol Conditions: scaled data
Measured Metric: Human Hepatocytes in vitro scaled Intrinsic Clearance (mL/min/kg)
I only need the number, in mL/min/kg, no unit after it.

CC[C@H]1OC(=O)[C@H](C)C(=O)[C@H](C)[C@@H](O[C@@H]2O[C@H](C)C[C@H](N(C)C)[C@H]2O)[C@](C)(OC)C[C@@H](C)C(=O)[C@H](C)[C@H]2N(C3CN([C@H](C)c4ccnc5ncccc45)C3)C(=O)O[C@]12C
27.2
CN(C)CCNC(=O)c1cccc2cc3ccccc3nc12
125

Consider now this further compound.
Request: Provide one value: measured Human Hepatocytes in vitro scaled Intrinsic Clearance of Nc1nc(OCc2ccccc2)c2nc[nH]c2n1
Result: 34.6

* * *

# Procedure Details: Human liver S-9 intrinsic clearance
# Format: in vitro ADME
# Protocol Conditions: 2.5 mg/mL S-9, 1 μM, replicate 2
Measured Metric: Human Liver S-9 Intrinsic Clearance _2 (μL/min/mg protein)
I only need the number, in μL/min/mg protein, no unit after it.

Answered cases to consult:
CN(C)CCNC(=O)c1cccc2cc3ccccc3nc12 [DACA]
17.7
Nc1nc(OCc2ccccc2)c2nc[nH]c2n1 [O6-benzylguanine]
5.97

Consider now this further molecule.
Request: Provide one value: measured Human Liver S-9 Intrinsic Clearance _2 of CC[C@H]1OC(=O)[C@H](C)C(=O)[C@H](C)[C@@H](O[C@@H]2O[C@H](C)C[C@H](N(C)C)[C@H]2O)[C@](C)(OC)C[C@@H](C)C(=O)[C@H](C)[C@H]2N(C3CN([C@H](C)c4ccnc5ncccc45)C3)C(=O)O[C@]12C [PF-945863]
Result: 6.22

* * *

# Tested on: MCP-1 production in primary murine microglial cells
# Procedure Details: MCP-1 ELISA, primary mouse microglia after CSF-1 stimulation
# Format: cell-based
# Protocol Conditions: primary murine microglia, 100 ng/mL CSF-1 24 hours; read-out: IC50, MCP-1 production
Measured Metric: pIC50
pIC50 is defined as minus the log10 of a concentration measured in mol/L.

Request: Provide one value: measured pIC50 of FC(F)(F)c1ccc(CNc2ccc(Cc3c[nH]c4ncc(Cl)cc34)cn2)cn1 [PLX3397, pexidartinib]
Result: 7.76

* * *

As shown below, each of these molecules has a reported Human Liver S-9 in vitro scaled Intrinsic Clearance value.
# Procedure Details: Human liver S-9 intrinsic clearance
# Format: in vitro ADME
# Protocol Conditions: scaled data
I only need the number, in mL/min/kg, no unit after it.

Nc1nc(OCc2ccccc2)c2nc[nH]c2n1 [O6-benzylguanine]
19.5
CC[C@H]1OC(=O)[C@H](C)C(=O)[C@H](C)[C@@H](O[C@@H]2O[C@H](C)C[C@H](N(C)C)[C@H]2O)[C@](C)(OC)C[C@@H](C)C(=O)[C@H](C)[C@H]2N(C3CN([C@H](C)c4ccnc5ncccc45)C3)C(=O)O[C@]12C [PF-945863]
20.1

Consider now this further molecule.
Request: Provide one value: measured Human Liver S-9 in vitro scaled Intrinsic Clearance of CN(C)CCNC(=O)c1cccc2cc3ccccc3nc12 [DACA]
Result: 56.5

* * *

As shown below, each of these compounds has a reported microsomal CLint at 1 μM value.
# Procedure Details: Human liver cytosol intrinsic clearance
# Format: in vitro ADME
# Protocol Conditions: human, cytosol, Human Liver Cytosol Intrinsic Clearance _2
I only need the number, in µL/min/mg, no unit after it.

[2H]c1nc2cccnc2n1C([2H])([2H])c1cc(OC)c2c(c1)O[C@@H](C)[C@H](c1ccc(OC)nc1)O2 (racemic)
2.1
COc1ccc(C2Oc3c(OC)cc(Cn4cnc5cccnc54)cc3O[C@H]2C)cn1 (stereo partly drawn)
5
[2H]c1nc2cccnc2n1Cc1cc(OC)c2c(c1)O[C@@H](C)[C@H](c1ccc(OC)nc1)O2
2.2

Request: Provide one value: measured microsomal CLint at 1 μM of [2H]c1ccc2ncn(Cc3cc(OC)c4c(c3)O[C@@H](C)[C@H](c3ccc(OC)nc3)O4)c2n1 (racemic)
Result: 3.3

Request: Provide one value: measured microsomal CLint at 1 μM of [2H]c1nc2cccnc2n1Cc1cc(OC)c2c(c1)O[C@H](C)[C@@H](c1ccc(OC)nc1)O2
Result: 1.4

Request: Provide one value: measured microsomal CLint at 1 μM of [2H]c1ccc2nc([2H])n(Cc3cc(OC)c4c(c3)O[C@@H](C)[C@H](c3ccc(OC)nc3)O4)c2n1 (racemic)
Result: 1.7

* * *

As shown below, each of these compounds has a reported recovery at 90 min, 1 μM value.
# Procedure Details: Caco-2 efflux assay
# Assay type: in vitro ADME
# Protocol Conditions: human, read-out: Recovery B to A
I only need the number, in %, no unit after it.

[2H]c1nc2cccnc2n1Cc1cc(OC)c2c(c1)O[C@@H](C)[C@H](c1ccc(OC)nc1)O2
82.5

Request: Provide one value: measured recovery at 90 min, 1 μM of COc1ccc(C2Oc3c(OC)cc(Cn4cnc5cccnc54)cc3O[C@H]2C)cn1 (some centres unmarked)
Result: 94

* * *

# Procedure Details: Caco-2 permeability assay
# Assay type: in vitro ADME
# Protocol Conditions: human, apical pH 6.5, 90 min
As shown below, each of these compounds has a reported Papp at 90 min, 20 μM value.
I only need the number, in ×10⁻⁶ cm/s, no unit after it.

COc1ccc(C2Oc3c(OC)cc(Cn4cnc5cccnc54)cc3O[C@H]2C)cn1 (some centres unmarked) [Compound 24]
37.7

Consider now this further compound.
Request: Provide one value: measured Papp at 90 min, 20 μM of [2H]c1nc2cccnc2n1Cc1cc(OC)c2c(c1)O[C@@H](C)[C@H](c1ccc(OC)nc1)O2 [Compound 6]
Result: 37.7
